// data source = ChEMBL document CHEMBL1139496

Kindly state bioavailability for each of the entries shown.
Experiment: Oral bioavailability in monkey (dose 1-5 mg/kg i.v.)
Type: ADME, organism-based
Details: cercopithecidae, in vivo
Numeric answer plus unit only.

Record request: bioavailability value, item `C[C@@H]1CCCN1CCc1cc2cc(C(=O)c3ccc(F)cc3)ccc2o1` 14%

What do you get for `CC(=O)c1cccc(-c2ccc3oc(CCN4CCC[C@H]4C)cc3c2)c1` ? 72%

Repeat with `C[C@@H]1CCCN1CCc1cc2cc(-c3ccc(C#N)cc3)ccc2o1` 89%

Then this molecule: `C[C@@H]1CC[C@@H](C)N1CCCOc1ccc(-c2ccc(C(=O)N3CCOCC3)cc2)cc1` 78%

Same question for `C[C@@H]1CCCN1CCc1cc2cc(C(=O)c3cccc(F)c3)ccc2o1` please. 10%
